# Target Entity: PAK1 (Homo sapiens, UniProt Q13153)
# Sequence (Q13153 whole entry): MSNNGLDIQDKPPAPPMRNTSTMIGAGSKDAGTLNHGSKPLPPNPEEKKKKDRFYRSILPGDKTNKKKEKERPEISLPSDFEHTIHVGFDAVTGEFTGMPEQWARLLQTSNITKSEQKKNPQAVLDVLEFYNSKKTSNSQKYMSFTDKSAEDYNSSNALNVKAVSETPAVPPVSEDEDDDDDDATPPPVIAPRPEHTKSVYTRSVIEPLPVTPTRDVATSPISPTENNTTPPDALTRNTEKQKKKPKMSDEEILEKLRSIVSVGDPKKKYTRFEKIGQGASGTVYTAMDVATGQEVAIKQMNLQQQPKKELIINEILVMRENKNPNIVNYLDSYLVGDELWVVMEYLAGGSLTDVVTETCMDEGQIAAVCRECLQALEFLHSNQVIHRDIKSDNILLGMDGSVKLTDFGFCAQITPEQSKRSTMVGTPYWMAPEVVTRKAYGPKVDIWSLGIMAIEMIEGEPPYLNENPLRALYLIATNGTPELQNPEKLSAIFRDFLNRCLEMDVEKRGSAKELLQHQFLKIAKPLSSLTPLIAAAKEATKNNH
# Method Description: In vitro PAK inhibition assay (Z'-LYTE, SelectScreen), PAK1
# Assay type: biochemical
# Experimental Parameters: read-out: PAK1 IC50
Test Readout: IC50

> print(dat)
                                    compound  test.readout    test.value
 1  CCN(CC)CCn1c(=O)c(-c2ccc(-c3cncc(C)n3)cc2Cl)cc2cnc(N[C@@H]3CCOC3)nc21          IC50  50 to 500 nM
 2  CCn1c(=O)c(-c2ccc(-c3nccnc3C)cc2Cl)cc2cnc(NC3CCS(=O)(=O)CC3)nc21          IC50  50 to 500 nM
 3  CCn1c(=O)c(-c2ccc(-c3nccnc3C)cc2Cl)cc2cnc(NC3CC[S+]([O-])CC3)nc21 (stereo not shown)          IC50  50 to 500 nM
 4  CCn1c(=O)c(-c2ccc(-c3cnccn3)cc2Cl)cc2cnc(N[C@@H]3CCOC3)nc21          IC50  50 to 500 nM
 5  CCn1c(=O)c(-c2ccc(-c3noc(C)n3)cc2Cl)cc2cnc(NCCC3CCNCC3)nc21          IC50  50 to 500 nM
 6  O=c1c(-c2ccc(-c3ccncn3)cc2Cl)cc2cnc(NC3CCOCC3)nc2n1Cc1ccccc1C(F)(F)F          IC50  50 to 500 nM
 7  CCn1c(=O)c(-c2ccc(-c3nccnc3C)cc2Cl)cc2cnc(NCCC3CCNCC3)nc21          IC50       < 50 nM
 8  CCn1c(=O)c(-c2ccc(-c3nccnc3C)cc2Cl)cc2cnc(NC3CCNC(=O)C3)nc21 (stereo not shown)          IC50  50 to 500 nM
 9  CCn1c(=O)c(-c2ccc(-c3cncc(C)n3)cc2Cl)cc2cnc(NCCCOCCN)nc21          IC50  50 to 500 nM
10  CCn1c(=O)c(-c2ccc(-c3nccnc3C)cc2Cl)cc2cnc(NC3CCOC3)nc21 (stereo not shown)          IC50  50 to 500 nM
11  Cc1cncc(-c2ccc(-c3cc4cnc(N[C@@H]5CCOC5)nc4n([C@H]4CC[C@H](N)CC4)c3=O)c(Cl)c2)n1          IC50       < 50 nM
12  CCn1c(=O)c(-c2ccc(-c3nccnc3C)cc2Cl)cc2cnc(N[C@@H]3CCOC(C)(C)C3)nc21 (stereo in doubt)          IC50       < 50 nM
13  CCn1c(=O)c(-c2ccc(-c3cccnc3C)cc2Cl)cc2cnc(NC3CCOCC3)nc21          IC50  50 to 500 nM
14  Cc1cncc(-c2ccc(-c3cc4cnc(N[C@@H]5CCOC5)nc4n(CCN4CCCC4)c3=O)c(Cl)c2)n1          IC50  50 to 500 nM
15  Cc1nccnc1-c1ccc(-c2cc3cnc(N[C@@H]4CCOC4)nc3n(Cc3ccncc3)c2=O)c(Cl)c1          IC50  50 to 500 nM
16  CCn1c(=O)c(-c2ccc(-c3cncc(C)n3)cc2Cl)cc2cnc(N[C@H]3CC[C@@H](N)CC3)nc21          IC50  50 to 500 nM
17  CCNc1ncc2cc(-c3ccc(-c4cncc(C)n4)cc3Cl)c(=O)n([C@H]3CC[C@H](N)CC3)c2n1          IC50       < 50 nM
18  Cc1nccnc1-c1ccc(-c2cc3cnc(NC4CCOCC4)nc3n(C3CCCC3)c2=O)c(Cl)c1          IC50  50 to 500 nM
19  CCn1c(=O)c(-c2ccc(-c3nccnc3C)cc2Cl)cc2cnc(NC3CCCCC3)nc21          IC50     > 5000 nM
20  CCn1c(=O)c(-c2ccc(-c3cncc(C)n3)cc2Cl)cc2cnc(N[C@H]3CC[C@H](N)CC3)nc21          IC50       < 50 nM
21  CCn1c(=O)c(-c2ccc(-c3nccnc3C)cc2Cl)cc2cnc(NC3CCSCC3)nc21          IC50  50 to 500 nM
22  CCn1c(=O)c(-c2ccc(-c3nccnc3C)cc2Cl)cc2cnc(N[C@@H]3CCOC3)nc21          IC50  50 to 500 nM

* * *

# Target Entity: PAK3 (Homo sapiens)
# Sequence (O75914 1-544 isoform O75914-2): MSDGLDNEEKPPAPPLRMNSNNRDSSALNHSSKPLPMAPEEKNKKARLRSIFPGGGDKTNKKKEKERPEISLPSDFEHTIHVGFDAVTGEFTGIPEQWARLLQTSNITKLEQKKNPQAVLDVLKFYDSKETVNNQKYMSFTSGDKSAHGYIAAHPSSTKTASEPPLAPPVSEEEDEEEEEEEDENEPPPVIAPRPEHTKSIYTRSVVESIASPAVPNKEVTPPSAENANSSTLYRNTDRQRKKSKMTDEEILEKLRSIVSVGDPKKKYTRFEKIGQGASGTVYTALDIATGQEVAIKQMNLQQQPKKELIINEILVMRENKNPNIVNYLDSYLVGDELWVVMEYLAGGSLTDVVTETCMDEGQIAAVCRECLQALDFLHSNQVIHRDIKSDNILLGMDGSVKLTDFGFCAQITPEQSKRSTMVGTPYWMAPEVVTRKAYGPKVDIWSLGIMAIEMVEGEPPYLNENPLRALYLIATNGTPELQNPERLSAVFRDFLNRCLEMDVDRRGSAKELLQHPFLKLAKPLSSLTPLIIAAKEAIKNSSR
# Method Description: In vitro PAK inhibition assay (Z'-LYTE, SelectScreen), PAK3
# Format: biochemical
# Experimental Parameters: read-out: PAK3 IC50
Test Readout: IC50

> print(dat)
                                    compound  test.readout      test.value
 1  CCn1c(=O)c(-c2ccc(-c3cncc(C)n3)cc2Cl)cc2cnc(NCCC3CCNCC3)nc21          IC50         < 50 nM
 2  CCn1c(=O)c(-c2ccc(-c3nccnc3C)cc2Cl)cc2cnc(NC3CCNC3)nc21 (stereo not shown)          IC50  500 to 5000 nM
 3  CCn1c(=O)c(-c2ccc(-c3cncc(C)n3)cc2Cl)cc2cnc(NC3C[C@@H](C)O[C@@H](C)C3)nc21 (stereo partly shown)          IC50    50 to 500 nM
 4  CCn1c(=O)c(-c2ccc(-c3nccnc3C)cc2Cl)cc2cnc(NC3CCN(C(C)=O)C3)nc21 (stereo not shown)          IC50  500 to 5000 nM
 5  Cc1cncc(-c2ccc(-c3cc4cnc(NC5CCCC5)nc4n([C@H]4CC[C@H](N)CC4)c3=O)c(Cl)c2)n1          IC50         < 50 nM
 6  CCn1c(=O)c(-c2ccc(-c3nccnc3C)cc2Cl)cc2cnc(NC3CCN(C)CC3)nc21          IC50  500 to 5000 nM
 7  CCn1c(=O)c(-c2ccc(-c3cncc(C)n3)cc2Cl)cc2cnc(N[C@@H]3CCOC3)nc21          IC50    50 to 500 nM
 8  CCn1c(=O)c(-c2ccc(-c3ccn(C)n3)cc2Cl)cc2cnc(N[C@@H]3CCOC3)nc21          IC50  500 to 5000 nM
 9  Cc1cncc(-c2ccc(-c3cc4cnc(N[C@H]5CCOC5)nc4n(CCN(C)C)c3=O)c(Cl)c2)n1          IC50  500 to 5000 nM
10  CCn1c(=O)c(-c2ccc(-c3cnccc3C)cc2Cl)cc2cnc(N[C@@H]3CCOC3)nc21          IC50  500 to 5000 nM
11  Cc1cncc(-c2ccc(-c3cc4cnc(NC5CCOCC5)nc4n(Cc4ccccc4)c3=O)c(Cl)c2)n1          IC50    50 to 500 nM
12  Cc1nccnc1-c1ccc(-c2cc3cnc(N[C@H]4CCOC4)nc3n(Cc3ccncc3)c2=O)c(Cl)c1          IC50    50 to 500 nM
13  CCn1c(=O)c(-c2cc(C)c(-c3noc(C)n3)cc2Cl)cc2cnc(N[C@@H]3CCOC3)nc21 [Example 73]          IC50  500 to 5000 nM
14  CCn1c(=O)c(-c2ccc(-c3nccnc3C)cc2Cl)cc2cnc(NC3CCOC(C)C3)nc21 (stereo not shown)          IC50    50 to 500 nM
15  Cc1nccnc1-c1ccc(-c2cc3cnc(NC4CCOCC4)nc3[nH]c2=O)c(Cl)c1          IC50  500 to 5000 nM
16  CCn1c(=O)c(-c2ccc(-c3nccnc3C)cc2Cl)cc2cnc(NC3CCCN(C)C3)nc21 (stereo not shown)          IC50       > 5000 nM

* * *

Recorded IC50 for the following compounds
# Target Entity: PAK1 (Homo sapiens, UniProt Q13153)
# Method Description: Additional in vitro PAK1 inhibition assay at ATP 10 uM and 1 mM
# Assay type: biochemical
# Experimental Parameters: 10 μM ATP; read-out: PAK1 IC50 (10 μM ATP)
Test Readout: IC50

> print(dat)
                                   compound      test.value
1  CCO[C@H]1COC[C@@H]1Nc1ncc2cc(-c3ccc(-c4noc(C)n4)cc3Cl)c(=O)n(CC)c2n1  500 to 5000 nM
2  CCn1c(=O)c(-c2ccc(-c3noc(C)n3)cc2Cl)cc2cnc(NN3CCOCC3)nc21  500 to 5000 nM
3  CCn1c(=O)c(-c2ccc(-c3noc(C)n3)cc2Cl)cc2cnc(NC3CCC(=O)NC3)nc21 (stereo not drawn)  500 to 5000 nM

Measured values drawn from patent US20130116263A1 for this set.
